Molecular target: T1, CXCL11 (Homo sapiens, UniProt O14625 O14625:22-94)
T1 sequence: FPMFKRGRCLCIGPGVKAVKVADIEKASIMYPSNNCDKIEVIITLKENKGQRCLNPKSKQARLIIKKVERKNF
Experiment: ELONA; n=2
Conditions: tags: Cell guidance system; label: 5' biotin or Cy5; G4
recorded endpoint: pKd
// pKd: -log10(molar conc.)

What value of pKd has been recorded for this entry: G123 DNA (ssDNA) DNA: CACGACGCAAGGGACCACAGGGAGGGAGGGTGGGCAAAGGGCCCTAAGTCCGTAACAAAAACACAGCACGACACCGCAGAGGCA
6.60
